assay: Pharmacokinetics of rivaroxaban in rats after avitinib or gefitinib pretreatment; type: in vivo, Sprague–Dawley (SD) rats; settings: male, Sprague-Dawley, rat, plasma, oral, rivaroxaban ng/ml mean, 吉非替尼 (gefitinib) group, mean of rats 7-12, time 0.5
propertyName: concentration at 0.5 h (ng/mL)
Numbers only, in ng/mL.

So for O=C(NC[C@H]1CN(c2ccc(N3CCOCC3=O)cc2)C(=O)O1)c1ccc(Cl)s1 [rivaroxaban, Rivaroxaban] , the logged concentration at 0.5 h turned out to be 3670

----------
assay: Pharmacokinetics of rivaroxaban in rats after avitinib or gefitinib pretreatment; format: in vivo, Sprague–Dawley (SD) rats; details: male, Sprague-Dawley, rat, plasma, po, 10 mg/kg, gefitinib group, single rats No1-No6; read-out: Cmax
propertyName: Cmax (ng/mL)
Numbers only, in ng/mL.

Item: O=C(NC[C@H]1CN(c2ccc(N3CCOCC3=O)cc2)C(=O)O1)c1ccc(Cl)s1 | Cmax: 6780

----------
experiment: Pharmacokinetics of rivaroxaban in rats after avitinib or gefitinib pretreatment; format: in vivo, Sprague–Dawley (SD) rats; details: male, Sprague-Dawley, rat, plasma, po, 10 mg/kg, gefitinib group, Mean; read-out: Cmax
propertyName: Cmax (ng/mL)
Numbers only, in ng/mL.

Per the record, O=C(NC[C@H]1CN(c2ccc(N3CCOCC3=O)cc2)C(=O)O1)c1ccc(Cl)s1 [rivaroxaban, Rivaroxaban] has Cmax of 8310

----------
test: Pharmacokinetics of rivaroxaban in rats after avitinib or gefitinib pretreatment; format: in vivo, Sprague–Dawley (SD) rats; settings: male, Sprague-Dawley, rat, plasma, po, 10 mg/kg, gefitinib group, Mean; read-out: AUC(0-t)
propertyName: AUC(0-t) (ng·h/mL)
Answers are plain numbers, in ng·h/mL.

Input O=C(NC[C@H]1CN(c2ccc(N3CCOCC3=O)cc2)C(=O)O1)c1ccc(Cl)s1 [rivaroxaban, Rivaroxaban] . Output AUC(0-t): 58000

----------
test: Pharmacokinetics of rivaroxaban in rats after avitinib or gefitinib pretreatment; format: in vivo, Sprague–Dawley (SD) rats; conditions: male, Sprague-Dawley, rat, plasma, oral, 10 mg/kg, rivaroxaban ng/ml, 对照 (control, rivaroxaban alone) group, individual rats 13-18, time 0.25
propertyName: concentration at 0.25 h
Include the unit right after the number.

The molecule listed as O=C(NC[C@H]1CN(c2ccc(N3CCOCC3=O)cc2)C(=O)O1)c1ccc(Cl)s1 has a reported concentration at 0.25 h of 0.305 µg/mL

----------
Assay: Pharmacokinetics of rivaroxaban in rats after avitinib or gefitinib pretreatment
Type: in vivo, Sprague–Dawley (SD) rats
Settings: male, Sprague-Dawley, rat, plasma, oral, rivaroxaban ng/ml mean, 吉非替尼 (gefitinib) group, mean of rats 7-12, time 12
Method: Eighteen male Sprague–Dawley (SD) rats weighing 300 ± 20 g were provided by the Experimental Animal Center of Wenzhou Medical University (Wenzhou, China) and kept under controlled conditions at a temperature of 23 ± 2 °C, relative humidity of 50 ± 10%, and 12 h light–dark cycle. Eighteen male SD rats were randomly assigned to three groups: avitinib, gefitinib, and control, with six rats per group. […] All assays were performed in triplicate, and the results are expressed as mean ± standard deviation. […]
propertyName: concentration at 12 h (µg/mL)
Numbers only, in µg/mL.

Briefly, concentration at 12 h measured for O=C(NC[C@H]1CN(c2ccc(N3CCOCC3=O)cc2)C(=O)O1)c1ccc(Cl)s1 [rivaroxaban, Rivaroxaban] : 1.64
